Listed below: MCH-5 k3/Ki values for each entry.
# test.system: MCH-5 (Homo sapiens)
# Sequence (Q14790 217-374 limits assumed, species assumed): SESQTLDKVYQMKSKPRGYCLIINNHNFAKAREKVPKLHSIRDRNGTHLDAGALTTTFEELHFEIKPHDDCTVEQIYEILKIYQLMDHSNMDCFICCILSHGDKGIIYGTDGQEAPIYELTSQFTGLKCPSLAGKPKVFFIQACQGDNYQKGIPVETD
# Sequence (Q14790 385-479 limits assumed, species assumed): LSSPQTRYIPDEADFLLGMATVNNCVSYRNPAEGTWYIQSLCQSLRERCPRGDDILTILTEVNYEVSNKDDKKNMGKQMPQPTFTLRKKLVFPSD
# method.summary: Dissociation constant Ki and irreversible rate constant k3 for irreversible inhibitors (Mch5)
# Assay type: biochemical
# conditions: continuous assay 60 min, reaction initiated by adding enzyme to substrate-inhibitor mixture

CC(C)[C@H](NC(=O)C(=O)Nc1ccccc1I)C(=O)N[C@@H](CC(=O)O)C(=O)COc1c(F)c(F)cc(F)c1F [Example 107] = 1,026,000 moles^−1 seconds^−1
C[C@H](NC(=O)C(=O)Nc1ccccc1C(C)(C)C)C(=O)N[C@@H](CC(=O)O)C(=O)COc1ccccc1F [Example 31] = 119,000 moles^−1 seconds^−1
C[C@H](NC(=O)C(=O)Nc1cccc2c1CCCC2)C(=O)N[C@@H](CC(=O)O)C(=O)COC(=O)c1c(Cl)cccc1Cl [Example 49] = 1,920,000 moles^−1 seconds^−1
C[C@H](NC(=O)C(=O)Nc1ccccc1Cl)C(=O)N[C@@H](CC(=O)O)C(=O)COP(=O)(c1ccccc1)c1ccccc1 [Example 41] = 179,000 moles^−1 seconds^−1
CC(C)[C@H](NC(=O)C(=O)Nc1cccc2ccccc12)C(=O)N[C@@H](CC(=O)O)C(=O)COc1ccc(O)cc1 [Example 15] = 625,000 moles^−1 seconds^−1

API: the following record is the query input.
Q. Given C[C@H](NC(=O)C(=O)Nc1cc(C(C)(C)C)ccc1C(C)(C)C)C(=O)N[C@@H](CC(=O)O)C(=O)COc1c(F)c(F)cc(F)c1F [Example 40] , state its recorded MCH-5 k3/Ki.
A. 248,000 moles^−1 seconds^−1

----------
# test.system: MCH-2 (Homo sapiens)
# Sequence (P55212 24-179 limits assumed): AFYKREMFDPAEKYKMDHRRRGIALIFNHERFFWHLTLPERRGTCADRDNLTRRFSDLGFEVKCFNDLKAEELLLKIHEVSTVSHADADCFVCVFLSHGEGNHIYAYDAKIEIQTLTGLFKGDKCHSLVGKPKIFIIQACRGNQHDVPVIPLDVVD
# Sequence (P55212 194-293 limits assumed): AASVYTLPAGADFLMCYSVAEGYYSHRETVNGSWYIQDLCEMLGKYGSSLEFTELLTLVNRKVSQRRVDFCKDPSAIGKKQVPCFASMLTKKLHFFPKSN
# method.summary: Dissociation constant Ki and irreversible rate constant k3 for irreversible inhibitors (Mch2)
# Assay type: biochemical
# conditions: continuous assay 60 min, reaction initiated by adding enzyme to substrate-inhibitor mixture
measurement.type: MCH-2 k3/Ki

The examples below pair each entry with its known result.
C[C@H](NC(=O)C(=O)Nc1ccccc1Cl)C(=O)N[C@@H](CC(=O)O)C(=O)COP(=O)(c1ccccc1)c1ccccc1 [Example 57] = 373,000 moles^−1 seconds^−1
C[C@H](NC(=O)C(=O)Nc1ccccc1C(C)(C)C)C(=O)N[C@@H](CC(=O)O)C(=O)COP(=O)(c1ccccc1)c1ccccc1 [Example 47] = 484,000 moles^−1 seconds^−1
CC(C)[C@H](NC(=O)C(=O)Nc1ccccc1I)C(=O)N[C@@H](CC(=O)O)C(=O)COc1c(F)c(F)cc(F)c1F = 137,000 moles^−1 seconds^−1
CC(C)[C@H](NC(=O)C(=O)NCCc1ccccc1)C(=O)N[C@@H](CC(=O)O)C(=O)COc1c(F)c(F)cc(F)c1F = 12,600 moles^−1 seconds^−1
C[C@H](NC(=O)C(=O)Nc1ccc(F)cc1)C(=O)N[C@@H](CC(=O)O)C(=O)COC(=O)c1c(Cl)cccc1Cl = 18,600 moles^−1 seconds^−1

Q. Given `C[C@H](NC(=O)C(=O)NCc1cccc2ccccc12)C(=O)N[C@@H](CC(=O)O)C(=O)COP(=O)(c1ccccc1)c1ccccc1` , state its recorded MCH-2 k3/Ki.
A. 186,000 moles^−1 seconds^−1

Q. Given `CC(C)[C@H](NC(=O)C(=O)Nc1c(F)c(F)nc(F)c1F)C(=O)N[C@@H](CC(=O)O)C(=O)COc1c(F)c(F)cc(F)c1F` , state its recorded MCH-2 k3/Ki.
A. 170,000 moles^−1 seconds^−1

Q. Given C[C@H](NC(=O)C(=O)Nc1ccccc1I)C(=O)N[C@@H](CC(=O)O)C(=O)COC(=O)c1c(Cl)cccc1Cl [Example 38] , state its recorded MCH-2 k3/Ki.
A. 360,000 moles^−1 seconds^−1

Q. Given `C[C@H](NC(=O)C(=O)Nc1cccc2c1CCCC2)C(=O)N[C@@H](CC(=O)O)C(=O)COc1c(F)c(F)cc(F)c1F` , state its recorded MCH-2 k3/Ki.
A. 64,100 moles^−1 seconds^−1

Q. Given C[C@H](NC(=O)C(=O)Nc1cccc2c1CCCC2)C(=O)N[C@@H](CC(=O)O)C(=O)COC(=O)c1c(Cl)cccc1Cl [Example 49] , state its recorded MCH-2 k3/Ki.
A. 264,000 moles^−1 seconds^−1
